FYI, the data here is from ChEMBL document CHEMBL3102828.

- Test system: Staphylococcus epidermidis
- Experiment summary: Antimicrobial activity against methicillin-sensitive Staphylococcus epidermidis ATCC 12228 by broth microdilution method
- Format: functional
Observed property: MIC (µg/mL)
Express it in µg/mL; write the number only.

GET /value?item= `CO[C@@H]1[C@@H](O[C@@H]2O[C@H](C)[C@@H](O[C@H]3C[C@@](C)(O)[C@@H](OC(=O)CC(C)C)[C@H](C)O3)[C@H](N(C)C)[C@H]2O)[C@@H](CC=O)C[C@@H](C)[C@@H](O)/C=C/C=C/C[C@@H](C)OC(=O)C[C@H]1OC(C)=O` &field=MIC returns 1

GET /value?item= `COc1ccc(C(=O)O[C@H]2[C@H](N(C)C)[C@@H](O)[C@H](O[C@H]3[C@@H](CC=O)C[C@@H](C)[C@@H](OC(C)=O)/C=C/C=C/C[C@@H](C)OC(=O)C[C@@H](OC(C)=O)[C@@H]3OC)O[C@@H]2C)cc1` &field=MIC returns 8

GET /value?item= `CO[C@@H]1[C@@H](O[C@@H]2O[C@H](C)[C@@H](OC(=O)/C=C/c3ccccc3)[C@H](N(C)C)[C@H]2O)[C@@H](CC=O)C[C@@H](C)[C@@H](OC(C)=O)/C=C/C=C/C[C@@H](C)OC(=O)C[C@H]1OC(C)=O` &field=MIC returns 4

* * *

- Tested on: Staphylococcus epidermidis
- Experiment summary: Antimicrobial activity against methicillin-sensitive Staphylococcus epidermidis ATCC 12228 by broth microdilution method
- Assay type: functional
Give MIC for every item shown.
Express it in µg/mL; write the number only.

GET /value?item= `CO[C@@H]1[C@@H](O[C@@H]2O[C@H](C)[C@@H](OC(=O)c3ccccc3)[C@H](N(C)C)[C@H]2O)[C@@H](CC=O)C[C@@H](C)[C@@H](OC(C)=O)/C=C/C=C/C[C@@H](C)OC(=O)C[C@H]1OC(C)=O` &field=MIC returns 8

GET /value?item= `CO[C@@H]1[C@@H](O[C@@H]2O[C@H](C)[C@@H](O)[C@H](N(C)C)[C@H]2O)[C@@H](CC=O)C[C@@H](C)[C@@H](OC(C)=O)/C=C/C=C/C[C@@H](C)OC(=O)C[C@H]1OC(C)=O` &field=MIC returns 16

GET /value?item= `CO[C@H]1/C=C\C(=O)O[C@H](C)C/C=C/C=C/[C@H](OC(C)=O)[C@H](C)C[C@H](CC=O)[C@@H]1O[C@@H]1O[C@H](C)[C@@H](O)[C@H](N(C)C)[C@H]1O` &field=MIC returns 64

GET /value?item= `CCCC(=O)O[C@H]1[C@H](N(C)C)[C@@H](O)[C@H](O[C@H]2[C@@H](CC=O)C[C@@H](C)[C@@H](OC(C)=O)/C=C/C=C/C[C@@H](C)OC(=O)C[C@@H](OC(C)=O)[C@@H]2OC)O[C@@H]1C` &field=MIC returns 4

GET /value?item= `CO[C@@H]1[C@@H](O[C@@H]2O[C@H](C)[C@@H](OC(=O)c3ccc([N+](=O)[O-])cc3)[C@H](N(C)C)[C@H]2O)[C@@H](CC=O)C[C@@H](C)[C@@H](OC(C)=O)/C=C/C=C/C[C@@H](C)OC(=O)C[C@H]1OC(C)=O` &field=MIC returns 32

GET /value?item= `CO[C@@H]1[C@@H](O[C@@H]2O[C@H](C)[C@@H](OC(=O)CC(C)C)[C@H](N(C)C)[C@H]2O)[C@@H](CC=O)C[C@@H](C)[C@@H](OC(C)=O)/C=C/C=C/C[C@@H](C)OC(=O)C[C@H]1OC(C)=O` &field=MIC returns 8

GET /value?item= `CO[C@@H]1[C@@H](O[C@@H]2O[C@H](C)[C@@H](OC(=O)CCc3ccccc3)[C@H](N(C)C)[C@H]2O)[C@@H](CC=O)C[C@@H](C)[C@@H](OC(C)=O)/C=C/C=C/C[C@@H](C)OC(=O)C[C@H]1OC(C)=O` &field=MIC returns 4

* * *

- System: Staphylococcus epidermidis
- Experiment summary: Antimicrobial activity against methicillin-sensitive Staphylococcus epidermidis 09-9 by broth microdilution method
- Assay type: functional
Observed property: MIC (µg/mL)
Express it in µg/mL; write the number only.

GET /value?item= `CO[C@@H]1[C@@H](O[C@@H]2O[C@H](C)[C@@H](O)[C@H](N(C)C)[C@H]2O)[C@@H](CC=O)C[C@@H](C)[C@@H](OC(C)=O)/C=C/C=C/C[C@@H](C)OC(=O)C[C@H]1OC(C)=O` &field=MIC returns 16

GET /value?item= `CO[C@@H]1[C@@H](O[C@@H]2O[C@H](C)[C@@H](O[C@H]3C[C@@](C)(O)[C@@H](OC(=O)CC(C)C)[C@H](C)O3)[C@H](N(C)C)[C@H]2O)[C@@H](CC=O)C[C@@H](C)[C@@H](O)/C=C/C=C/C[C@@H](C)OC(=O)C[C@H]1OC(C)=O` &field=MIC returns 2

GET /value?item= `CO[C@H]1/C=C\C(=O)O[C@H](C)C/C=C/C=C/[C@H](OC(C)=O)[C@H](C)C[C@H](CC=O)[C@@H]1O[C@@H]1O[C@H](C)[C@@H](O)[C@H](N(C)C)[C@H]1O` &field=MIC returns 64

* * *

- Test system: Staphylococcus aureus
- Experiment summary: Antimicrobial activity against methicillin-sensitive Staphylococcus aureus ATCC 29213 by broth microdilution method
- Type: functional
Give MIC for every item shown.

GET /value?item= `CO[C@@H]1[C@@H](O[C@@H]2O[C@H](C)[C@@H](OC(=O)Nc3ccc(C(F)(F)F)cc3)[C@H](N(C)C)[C@H]2O)[C@@H](CC=O)C[C@@H](C)[C@@H](OC(C)=O)/C=C/C=C/C[C@@H](C)OC(=O)C[C@H]1OC(C)=O` &field=MIC returns > 64 µg/mL

GET /value?item= `CO[C@H]1/C=C\C(=O)O[C@H](C)C/C=C/C=C/[C@H](O)[C@H](C)C[C@H](CC=O)[C@@H]1O[C@@H]1O[C@H](C)[C@@H](O)[C@H](N(C)C)[C@H]1O` &field=MIC returns > 32 µg/mL

GET /value?item= `CO[C@H]1/C=C\C(=O)O[C@H](C)C/C=C/C=C/[C@H](O)[C@H](C)C[C@H](CC=O)[C@@H]1O[C@@H]1O[C@H](C)[C@@H](OC(=O)Nc2ccc(C(F)(F)F)cc2)[C@H](N(C)C)[C@H]1O` &field=MIC returns > 64 µg/mL

GET /value?item= `CO[C@H]1/C=C\C(=O)O[C@H](C)C/C=C/C=C/[C@H](OC(C)=O)[C@H](C)C[C@H](CC=O)[C@@H]1O[C@@H]1O[C@H](C)[C@@H](OC(=O)Nc2ccc(C(F)(F)F)cc2)[C@H](N(C)C)[C@H]1O` &field=MIC returns > 64 µg/mL

GET /value?item= `CO[C@H]1/C=C\C(=O)O[C@H](C)C/C=C/C=C/[C@H](OC(C)=O)[C@H](C)C[C@H](CC=O)[C@@H]1O[C@@H]1O[C@H](C)[C@@H](O)[C@H](N(C)C)[C@H]1O` &field=MIC returns > 64 µg/mL
